Ki data for soluble human BACE1 catalytic domain (Homo sapiens (Human)) follow.
Report as a plain number; the unit nM is understood.

Some molecules with known Ki results, for comparison:
- MOLECULE: "C[C@@]1(c2cc(-c3cccnc3)ccc2F)Cc2ncncc2C(=N)N1 [Example 10]"
  TESTED SYSTEM: "soluble human BACE1 catalytic domain (Homo sapiens (Human))"
  UNIT OF MEASURE: "nM"
  Ki: 746
- MOLECULE: "C[C@@]1(c2cc(-c3cccc(C(F)(F)F)c3)ccc2F)Cc2ncncc2C(=N)N1 [Example 6]"
  TESTED SYSTEM: "soluble human BACE1 catalytic domain (Homo sapiens (Human))"
  UNIT OF MEASURE: "nM"
  Ki: 3040
- MOLECULE: "C[C@@]1(c2cc(-c3cccc(C#N)c3)cs2)Cc2nc(C(F)(F)F)ncc2C(=N)N1 [Example 40]"
  TESTED SYSTEM: "soluble human BACE1 catalytic domain (Homo sapiens (Human))"
  UNIT OF MEASURE: "nM"
  Ki: 58.2

// moving on: another record for Ki
// sample C[C@@]1(c2sc(-c3cccc(-c4nnco4)c3)cc2Cl)Cc2ncncc2C(=N)N1 [Example 15] , its Ki was 11.1

* * *

TESTED SYSTEM: soluble human BACE1 catalytic domain (Homo sapiens (Human))
Sequence (P56817 75-416): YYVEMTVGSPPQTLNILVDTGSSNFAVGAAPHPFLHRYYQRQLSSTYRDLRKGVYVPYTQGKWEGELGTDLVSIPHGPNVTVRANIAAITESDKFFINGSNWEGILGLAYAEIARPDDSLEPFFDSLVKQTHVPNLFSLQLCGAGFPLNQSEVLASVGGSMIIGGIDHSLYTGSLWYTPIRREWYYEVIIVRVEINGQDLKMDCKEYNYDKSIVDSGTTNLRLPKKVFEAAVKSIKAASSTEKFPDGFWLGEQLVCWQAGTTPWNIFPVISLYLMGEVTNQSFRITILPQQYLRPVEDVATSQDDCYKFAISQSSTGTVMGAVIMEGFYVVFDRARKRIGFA
ASSAY EXPLANATION: BACE-1 Ki Assay (BACE-1 HTRF FRET Assay)
Assay type: biochemical
MEASUREMENT CONDITIONS: Ki calculated from IC50 using the Cheng-Prusoff equation; QSY7-APPswe-Eu substrate 200 nM, pH 5.0
OBSERVATION TYPE: log10 of Ki (log10 of the value in nM)
Remember, log10 of Ki, in nM.

- SMILES REPR: "C[C@@]1(c2cc(-c3cncc(C#N)c3)cs2)Cc2nc(C3CC3)ncc2C(=N)N1"
  log10 of Ki: 2.35

// sample `C[C@@]1(c2sc(-c3cncc(C#N)c3)cc2Cl)Cc2nc(C3CC3)ncc2C(=N)N1` , its log10 of Ki was 1.98

// sample `Cc1ncc2c(n1)C[C@@](C)(c1sc(-c3cncc(C#N)c3)cc1Cl)NC2=N` , its log10 of Ki was 2.10

// sample `C[C@@]1(c2cc(-c3cccc(-c4nnco4)c3)cs2)Cc2nc(C3CC3)ncc2C(=N)N1` , its log10 of Ki was 1.93

// sample `C[C@]1(c2cc(-c3cccc(C#N)c3)cs2)NC(=N)c2cncnc2C1(F)F` , its log10 of Ki was 1.91

// sample `C[C@@]1(c2cc(-c3cncnc3)ccc2F)Cc2ncncc2C(=N)N1` , its log10 of Ki was 2.89

* * *

TESTED SYSTEM: purified human autoBACE-2 (Homo sapiens (Human))
Sequence (Q9Y5Z0 63-473 limits assumed): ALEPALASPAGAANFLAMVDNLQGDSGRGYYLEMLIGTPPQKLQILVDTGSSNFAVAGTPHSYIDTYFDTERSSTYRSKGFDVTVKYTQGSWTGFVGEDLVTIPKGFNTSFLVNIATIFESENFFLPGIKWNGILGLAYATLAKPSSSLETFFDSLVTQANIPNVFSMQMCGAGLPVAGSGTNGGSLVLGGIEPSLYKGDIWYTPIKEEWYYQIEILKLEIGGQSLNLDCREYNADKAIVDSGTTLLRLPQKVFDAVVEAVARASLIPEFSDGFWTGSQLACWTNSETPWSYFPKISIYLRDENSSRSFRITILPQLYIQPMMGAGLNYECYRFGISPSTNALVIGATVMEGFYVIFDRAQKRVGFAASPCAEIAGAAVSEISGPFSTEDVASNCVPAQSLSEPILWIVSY
Please assign NO whenever Ki is at or above 50 nM, and YES whenever it is below.

A selection of reference data follows.
- COMPOUND: "COc1ccc(C(=O)Nc2ccc(F)c([C@]3(C)Cc4nc(C)ncc4C(=N)N3)c2)nc1 [Example 47]"
  LABEL VALUE: "YES"
- COMPOUND: "Cc1ncc2c(n1)C[C@@](C)(c1sc(-c3cncc(C#N)c3)cc1Cl)NC2=N [Example 25]"
  LABEL VALUE: "NO"
- COMPOUND: "Cc1ncc2c(n1)C[C@@](C)(c1sc(-c3cccc(-c4nnco4)c3)cc1Cl)NC2=N [Example 26]"
  LABEL VALUE: "YES"
- COMPOUND: "C[C@@]1(c2cc(-c3cccc(-c4nnco4)c3)cs2)Cc2nc(C(F)(F)F)ncc2C(=N)N1 [Example 42]"
  LABEL VALUE: "NO"
- COMPOUND: "Cc1ncc2c(n1)C[C@@](C)(c1cc(NC(=O)c3ccc(C(F)(F)F)cn3)ccc1F)NC2=N [Example 46]"
  LABEL VALUE: "YES"
- COMPOUND: "C[C@@]1(c2cc(-c3cccc(-c4nnco4)c3)cs2)Cc2nc(C3CC3)ncc2C(=N)N1 [Example 34]"
  LABEL VALUE: "NO"
- COMPOUND: "COc1cccc2cc(-c3cc(Cl)c([C@]4(C)Cc5nc(C6CC6)ncc5C(=N)N4)s3)[nH]c12 [Example 38]"
  LABEL VALUE: "YES"
- COMPOUND: "Cc1ncc2c(n1)C[C@@](C)(c1cc(NC(=O)c3ccc(Cl)cn3)ccc1F)NC2=N [Example 45]"
  LABEL VALUE: "YES"
- COMPOUND: "C[C@@]1(c2cc(-c3cccc(C#N)c3)ccc2F)Cc2ncncc2C(=N)N1 [Example 11]"
  LABEL VALUE: "NO"
- COMPOUND: "C[C@@]1(c2cc(-c3cncnc3)ccc2F)Cc2ncncc2C(=N)N1 [Example 7]"
  LABEL VALUE: "NO"

Check if Ki falls below 50 nM for C[C@@]1(c2cc(-c3cncc(C#N)c3)cs2)Cc2nc(C(F)(F)F)ncc2C(=N)N1 [Example 41] .
NO

Check if Ki falls below 50 nM for C[C@@]1(c2cc(NC(=O)c3ccc(F)cn3)ccc2F)Cc2nc(C3CC3)ncc2C(=N)N1 [Example 48] .
YES

Check if Ki falls below 50 nM for Cc1ncc2c(n1)C[C@@](C)(c1sc(-c3cc(F)cc(-c4nnco4)c3)cc1Cl)NC2=N [Example 28] .
YES

Check if Ki falls below 50 nM for C[C@@]1(c2cc(-c3cccc(C#N)c3)cs2)Cc2nc(C3CC3)ncc2C(=N)N1 [Example 32] .
NO

Check if Ki falls below 50 nM for C[C@@]1(c2cc(-c3cccc(C(F)(F)F)c3)ccc2F)Cc2ncncc2C(=N)N1 [Example 6] .
NO

Check if Ki falls below 50 nM for Cc1ncc2c(n1)C[C@@](C)(c1sc(-c3cccc(C#N)c3)cc1Cl)NC2=N [Example 24] .
YES
